Biological target: TESK1 (human)
Assay: radiometric filter-binding kinase assay
Conditions: compound 10.0 µM
Recorded Endpoint: residual activity (%)

Cc1ccc(=O)n(-c2ccccc2)c1
82
NC(=O)c1cc(-c2ccnc(NC3CCCCC3)c2)nc(N2CCNCC2)c1
93
CC(C)(C#N)c1ccc(N2C(=O)OCc3cnc4ccc(-c5cnc6ccccc6c5)cc4c32)cc1
108
CC1=C(CO)C(=O)O[C@@H]([C@@H](C)[C@H]2CC[C@H]3[C@@H]4C[C@H]5O[C@]56[C@@H](O)C=CC(=O)[C@]6(C)C4CC[C@]23C)C1 (stereo not given in full)
104
CCn1c(-c2nonc2N)nc2cncc(CNC3CCNCC3)c21
104
NCC(=O)Nc1ccc(-n2nc(C(F)(F)F)cc2-c2ccc3c(ccc4ccccc43)c2)cc1
103
COc1cc(C(=O)N2CCOCC2)c(F)cc1Nc1ncc(C(F)(F)F)c(NC2CC2)n1
118
O=C(N[C@@H](COc1ccc2[nH]c(=O)[nH]c2c1)c1ccccc1)c1cccn(Cc2ccc(F)c(F)c2)c1=O
107
Nc1cccc2c1CN(C1CCC(=O)NC1=O)C2=O (stereo not given)
77
CCNc1nc(Nc2cc(F)c(C(=O)N3CCOCC3)cc2OC)ncc1C(F)(F)F
98

* * *

Molecular target: MAPKAPK5 (human)
Assay: radiometric filter-binding kinase assay
Details: compound 0.1 µM
Recorded Endpoint: residual activity (%)

COc1ccc(N(C(=O)Nc2c(C)cccc2C)c2cc(Nc3ccc(N4CCN(C)CC4)cc3)ncn2)c(OC)c1
115
NC1(c2ccc(-c3nc4ccn5c(=O)[nH]nc5c4cc3-c3ccccc3)cc2)CCC1
81
C/C(=C1/C(=O)Nc2ccc(NC(N)=O)cc21)c1ccc[nH]1
94
CCn1c(-c2nonc2N)nc2cncc(CNC3CCNCC3)c21
94
O=C(Nc1ccccc1-c1cn2c(CN3CCNCC3)csc2n1)c1cnc2ccccc2n1
101
CNc1nc(-c2ccc3c(N)n[nH]c3c2)cc(N2C[C@@H](C(=O)NC3CCCCC3)CC[C@H]2C)n1
92
O=C(N[C@@H](COc1ccc2[nH]c(=O)[nH]c2c1)c1ccccc1)c1cccn(Cc2ccc(F)c(F)c2)c1=O
108
NC(=O)c1cc2c(-c3cccc(-c4ccccc4)c3)cnc(N)c2s1
87
Cc1cccc(-c2nn(C(=S)Nc3ccccc3)cc2-c2ccnc3ccccc23)n1
113

* * *

Molecular target: MAP2K2 (human) (UniProt P36507)
Sequence (P36507 whole entry, looked up): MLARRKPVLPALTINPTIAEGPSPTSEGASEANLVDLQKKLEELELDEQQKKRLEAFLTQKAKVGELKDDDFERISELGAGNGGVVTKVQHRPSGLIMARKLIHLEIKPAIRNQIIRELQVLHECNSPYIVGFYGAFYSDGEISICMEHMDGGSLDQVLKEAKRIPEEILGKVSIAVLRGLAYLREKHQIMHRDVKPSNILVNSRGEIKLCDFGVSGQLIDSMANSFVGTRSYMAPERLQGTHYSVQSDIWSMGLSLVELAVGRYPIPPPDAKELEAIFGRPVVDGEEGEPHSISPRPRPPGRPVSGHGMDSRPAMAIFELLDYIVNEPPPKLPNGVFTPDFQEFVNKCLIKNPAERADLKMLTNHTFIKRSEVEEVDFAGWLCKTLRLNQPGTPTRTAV
Assay: radiometric filter-binding kinase assay
Conditions: compound 10.0 µM
Recorded Endpoint: residual activity (%)

NC(=O)c1cc(-c2ccnc(NC3CCCCC3)c2)nc(N2CCNCC2)c1
115
NC1(c2ccc(-c3nc4ccn5c(=O)[nH]nc5c4cc3-c3ccccc3)cc2)CCC1
90
CNc1nc(-c2ccc3c(N)n[nH]c3c2)cc(N2C[C@@H](C(=O)NC3CCCCC3)CC[C@H]2C)n1
94

[A] Nc1cccc2c1CN(C1CCC(=O)NC1=O)C2=O (stereo not given)
[B] O=C(NOCC(O)CO)c1ccc(F)c(F)c1Nc1ccc(I)cc1Cl (stereo not given)
*Q* Of A and B , whose reported residual activity is numerically smaller? Pick one; state its label.
*A* B
(B: 23%, A: 81%)

* * *

Target: PIM2 (human) (UniProt Q9P1W9)
Sequence (Q9P1W9 whole entry, looked up): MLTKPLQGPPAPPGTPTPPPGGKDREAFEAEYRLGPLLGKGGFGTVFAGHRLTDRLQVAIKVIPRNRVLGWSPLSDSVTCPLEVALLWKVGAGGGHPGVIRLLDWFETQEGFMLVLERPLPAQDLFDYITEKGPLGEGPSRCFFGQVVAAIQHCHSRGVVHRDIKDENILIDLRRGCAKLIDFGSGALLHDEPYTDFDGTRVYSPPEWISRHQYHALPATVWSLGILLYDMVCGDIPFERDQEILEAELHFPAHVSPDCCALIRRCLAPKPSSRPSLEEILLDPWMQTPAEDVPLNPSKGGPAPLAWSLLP
Assay: radiometric filter-binding kinase assay
Conditions: compound 1.0 µM
Recorded Endpoint: residual activity (%)

O=C(Nc1ccccc1-c1cn2c(CN3CCNCC3)csc2n1)c1cnc2ccccc2n1
95
O=C(O)c1cc(N=Nc2ccc(S(=O)(=O)Nc3ccccn3)cc2)ccc1O
98
Cc1cc(NC(=O)c2cccc(NC(=O)/C=C/CN(C)C)c2)ccc1Nc1nccc(-c2cccnc2)n1
99
COc1cc(C(=O)N2CCOCC2)c(F)cc1Nc1ncc(C(F)(F)F)c(NC2CC2)n1
100
C=C1C(=O)OC2C1CC/C(C)=C/CCC1(C)OC21 (stereo not given)
110

Data provenance: the kinase profiling compilation of Christmann-Franck et al. (2016)
